Tested on: mononuclear cells from AML patient samples
Assay Method Text: Cell viability assay (Sytox blue flow cytometry) in primary AML samples
Assay type: cell-based, human
Experimental Parameters: Patient AML AH6202849, 48 hours; combination at 1:1 ratio; read-out: 50% lethal concentration (LC50)
Measurement Label: CC50 (µM)
Give bare numbers, in µM.

Quote CC50 reported for `Cc1c(-c2c(-c3ccc(F)o3)sc3ncnc(O[C@H](Cc4ccccc4OCc4ccnn4CC(F)(F)F)C(=O)O)c23)ccc(OCCN2CCN(C)CC2)c1Cl` please.
13

====

System: mononuclear cells from AML patient samples
Assay Method Text: Cell viability assay (Sytox blue flow cytometry) in primary AML samples
Format: cell-based, human
Experimental Parameters: Patient AML AH0979006, 48 hours; combination at 1:1 ratio; read-out: 50% lethal concentration (LC50)
Measurement Label: CC50 (nM)
Answers are plain numbers, in nM.

Name the value of CC50 reported for `Cc1c(-c2c(-c3ccc(F)o3)sc3ncnc(O[C@H](Cc4ccccc4OCc4ccnn4CC(F)(F)F)C(=O)O)c23)ccc(OCCN2CCN(C)CC2)c1Cl` when tested on mononuclear cells from AML patient samples.
61.8

====

System: mononuclear cells from AML patient samples
Assay Method Text: Cell viability assay (Sytox blue flow cytometry) in primary AML samples
Assay type: cell-based, human
Experimental Parameters: Patient AML AH0607688, 48 hours; combination at 1:1 ratio; read-out: 50% lethal concentration (LC50)
Measurement Label: CC50 (µM)
Answers are plain numbers, in µM.

Tell me CC50 reported for `Cc1c(-c2c(-c3ccc(F)o3)sc3ncnc(O[C@H](Cc4ccccc4OCc4ccnn4CC(F)(F)F)C(=O)O)c23)ccc(OCCN2CCN(C)CC2)c1Cl`
22.9

====

System: mononuclear cells from AML patient samples
Assay Method Text: Cell viability assay (Sytox blue flow cytometry) in primary AML samples
Type: cell-based, human
Experimental Parameters: Patient AML AH6219953, 48 hours; combination at 1:1 ratio; read-out: 50% lethal concentration (LC50)
Measurement Label: CC50 (µM)
One number for each entry, in µM.

Name the value of CC50 reported for `Cc1c(-c2c(-c3ccc(F)o3)sc3ncnc(O[C@H](Cc4ccccc4OCc4ccnn4CC(F)(F)F)C(=O)O)c23)ccc(OCCN2CCN(C)CC2)c1Cl` when tested on mononuclear cells from AML patient samples.
38.8

====

Tested on: KG1a AML cell line
Assay Method Text: Single agent cell viability (CellTiterGlo)
Assay type: cell-based
Experimental Parameters: Homo sapiens, KG-1a, 72 h
Measurement Label: IC50 (µM)
Answers are plain numbers, in µM.

Write down IC50 measured for item Nc1ncn([C@H]2C[C@H](O)[C@@H](CO)O2)c(=O)n1 [Decitabine, decitabine]
14

====

Test system: PL-21 AML cell line
Assay Method Text: Single agent cell viability (CellTiterGlo)
Type: cell-based
Experimental Parameters: PL-21, 72 h
Measurement Label: IC50

State IC50 on PL-21 AML cell line. Entry: Nc1ncn([C@H]2C[C@H](O)[C@@H](CO)O2)c(=O)n1 [Decitabine, decitabine]
> 5 µM

====

Tested on: mononuclear cells from AML patient samples
Assay Method Text: Cell viability assay (Sytox blue flow cytometry) in primary AML samples
Format: cell-based, human
Experimental Parameters: Patient AML AH0465385, 48 hours; combination at 1:1 ratio; read-out: 50% lethal concentration (LC50)
Method: Bone marrow samples from patients with AML were collected after informed consent in accordance with guidelines approved by The Alfred Hospital Human research ethics committee. Mononuclear cells were isolated by density-gradient centrifugation Ficoll-Hypaque (GE Healthcare, Australia) density-gradient centrifugation and red cell lysis was performed using 0.156 M NH4Cl, 0.017 M Tris-HCl pH 7.2 as previously described (Rijal et al., Blood 2015, 125, 2815-2824). […]
Measurement Label: CC50
Give your result as the value with the unit written after it.

Supply recorded CC50 for `Cc1c(-c2c(-c3ccc(F)o3)sc3ncnc(O[C@H](Cc4ccccc4OCc4ccnn4CC(F)(F)F)C(=O)O)c23)ccc(OCCN2CCN(C)CC2)c1Cl` here.
23 µM

====

System: mononuclear cells from AML patient samples
Assay Method Text: Cell viability assay (Sytox blue flow cytometry) in primary AML samples
Assay type: cell-based, human
Experimental Parameters: Patient AML AH6607085, 48 hours; combination at 1:1 ratio; read-out: 50% lethal concentration (LC50)
Description: Bone marrow samples from patients with AML were collected after informed consent in accordance with guidelines approved by The Alfred Hospital Human research ethics committee. Mononuclear cells were isolated by density-gradient centrifugation Ficoll-Hypaque (GE Healthcare, Australia) density-gradient centrifugation and red cell lysis was performed using 0.156 M NH4Cl, 0.017 M Tris-HCl pH 7.2 as previously described (Rijal et al., Blood 2015, 125, 2815-2824). […]
Measurement Label: CC50

GET CC50 | system: mononuclear cells from AML patient samples | item: Cc1c(-c2c(-c3ccc(F)o3)sc3ncnc(O[C@H](Cc4ccccc4OCc4ccnn4CC(F)(F)F)C(=O)O)c23)ccc(OCCN2CCN(C)CC2)c1Cl [Compound 2]
143 nM
